Measured values drawn from patent US10689377B2 for this set.

biological target: KRas G12C (Homo sapiens, UniProt P01116, G12C); experiment: Cellular inhibition of KRas G12C measured by Phospho-ERK in NCI-H358 cells; format: cell-based; details: pERK(Thr202/Tyr204) normalized with GAPDH, NCI-H358 cells, 3 hours; read-out: IC50
Sequence (P01116 1-188 isoform P01116-2 G12C): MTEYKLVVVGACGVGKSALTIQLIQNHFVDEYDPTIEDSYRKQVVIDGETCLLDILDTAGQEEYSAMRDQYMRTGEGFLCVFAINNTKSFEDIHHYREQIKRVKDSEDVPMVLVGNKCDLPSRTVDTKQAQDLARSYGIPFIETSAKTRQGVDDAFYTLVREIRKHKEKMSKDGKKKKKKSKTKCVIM
pIC50: −log10 of the molar value. Structures can show the parent of a compound that is named as a salt.
Quantity Kind: pIC50

compound="C=CC(=O)N1CCN(c2nc(OC[C@@H]3CCCN3C)nc3c2CCN(c2ccccc2Cl)C3)CC1CC#N (some centres unmarked) [Example 229]" quantity_kind=pIC50 experimental_result="6.00 to 10.00"
compound="C=CC(=O)N1CCN(c2nc(OCCN3CCC(C)CC3)nc3c2CCN(c2cc(O)cc4ccccc24)C3)CC1 [Example 92]" quantity_kind=pIC50 experimental_result="6.00 to 10.00"
compound="C=CC(=O)N1CCN(c2nc(O[C@H](C)CN(C)C)nc3c2CCN(c2c(O)ccc(C)c2F)C3)CC1 [Example 84]" quantity_kind=pIC50 experimental_result="< 6.00"
compound="C=CC(=O)N1CCN(c2nc(NCCCN3CCOCC3)nc3c2CCN(c2cc(O)cc4ccccc24)C3)CC1 [Example 133]" quantity_kind=pIC50 experimental_result="< 6.00"
compound="CC#CC(=O)N1CCN(c2nc(OC[C@@H]3CCCN3C)nc3c2CCN(c2cccc4ccccc24)C3)CC1CC#N (some centres unmarked) [Example 242]" quantity_kind=pIC50 experimental_result="6.00 to 10.00"
compound="C=CC(=O)N1CCN(c2nc(OC[C@@H]3CN(C)CCO3)nc3c2CCN(c2cccc4ccccc24)C3)CC1CC#N (some centres unmarked) [Example 271]" quantity_kind=pIC50 experimental_result="6.00 to 10.00"
compound="C=C(F)C(=O)N1CCN(c2nc(OC[C@@H]3CCCN3C)nc3c2CCN(c2cccc4cccc(CO)c24)C3)C[C@@H]1CC#N [Example 567]" quantity_kind=pIC50 experimental_result="< 6.00"
compound="C=CC(=O)N1CCN(c2nc(OC[C@@H]3CCCN3C)nc3c2CCN(c2c(C)c(C)cc4[nH]ccc24)C3)CC1 [Example 457]" quantity_kind=pIC50 experimental_result="6.00 to 10.00"
compound="C=CC(=O)N1CCN(c2nc(OCCN3CCCCC3)nc3c2CCN(c2c(C)ccc4[nH]ncc24)C3)CC1 [Example 164]" quantity_kind=pIC50 experimental_result="< 6.00"
compound="C=CC(=O)N1CCN(c2nc(OCCN3CCS(=O)(=O)CC3)nc3c2CCN(c2cc(O)cc4ccccc24)C3)CC1 [Example 33, trifluoroacetate]" quantity_kind=pIC50 experimental_result="< 6.00"
compound="C=C(F)C(=O)N1CCN(c2nc(OC[C@@H]3CCCN3C)nc3c2CCN(c2nccc4cccc(Br)c24)C3)C[C@@H]1CC#N [Example 594]" quantity_kind=pIC50 experimental_result="< 6.00"
compound="C=C(F)C(=O)N1CCN(c2nc(OC[C@@H]3CCCN3C)nc3c2CCN(c2cccc4cccc(C(C)C)c24)C3)C[C@@H]1CC#N [Example 591]" quantity_kind=pIC50 experimental_result="< 6.00"
compound="C=CC(=O)N1CCN(c2nc(OC[C@@H]3COCCN3C)nc3c2CCN(c2cccc4ccccc24)C3)CC1CC#N (some centres unmarked) [Example 445]" quantity_kind=pIC50 experimental_result="6.00 to 10.00"
compound="C=CS(=O)(=O)N1CCN(c2nc(OC[C@@H]3CCCN3C)nc3c2CCN(c2cccc(C)c2C)C3)CC1 [Example 343]" quantity_kind=pIC50 experimental_result="< 6.00"
